# Assayed system: GPR68/OGR1 (Homo sapiens)
# Construct: host or cells: Chem-1 (CHEM1-OGR1) cells
# Assay explanation: CHEM1-OGR1 cells Fluo-8 calcium assay, acidified media pH 6.4
# Assay type: cell-based
# Run conditions: concentration causing 50% effective inhibition of calcium response to pH 6.4; read-out: EC50
Assay metric: EC50

In the examples that follow, each entry is paired with its recorded EC50.
>>> obs_value("O=C1Nc2ccccc2C12NN=C(c1ccc(Cl)cc1)S2 (stereo not shown)")
"< 826 nM"
>>> obs_value("COc1ccc(C2=NNC3(S2)C(=O)Nc2ccc(Cl)cc23)cc1 (stereo not shown)")
"4390 nM"
>>> obs_value("NS(=O)(=O)c1ccc2c(c1)C1(NN=C(c3ccccc3)S1)C(=O)N2 (stereo not shown)")
"3730 nM"
>>> obs_value("COc1ccc2c(c1)NC(=O)C21NN=C(c2ccnc(OC)c2)S1 (stereo not shown)")
"3570 nM"
>>> obs_value("O=C1Nc2ccc(Cl)cc2C12NN=C(c1ccc(Cl)cc1)S2 (stereo not shown)")
"2320 nM"

Continue with the molecule presented below.
// query Please give the measured EC50 for this molecule: O=C(O)c1ccc2c(c1)C1(NN=C(c3cccnc3)S1)C(=O)N2 (stereo not shown)
// result 2190 nM

---

Reported pEC50 by item:
# Assayed system: GPR68/OGR1 (Homo sapiens)
# Construct: host or cells: Chem-1 (CHEM1-OGR1) cells
# Assay explanation: CHEM1-OGR1 cells Fluo-8 calcium assay, acidified media pH 6.4
# Assay type: cell-based
# Run conditions: concentration causing 50% effective inhibition of calcium response to pH 6.4; read-out: EC50
Here pEC50 is given on a logarithmic scale as minus log10 of the concentration in mol/L.

>>> obs_value("O=C1Nc2ccccc2C12NN=C(c1ccccc1)S2 (stereo not shown)")
5.56
>>> obs_value("O=C(O)c1ccc2c(c1)C1(NN=C(c3ccc4ncccc4c3)S1)C(=O)N2 (stereo not shown)")
5.32

// query Need pEC50, item Cc1ccc(C2=NNC3(S2)C(=O)Nc2ccc(Cl)cc23)cc1 (stereo not shown)
// result 6.11

// query What value of pEC50 has been reported for the following molecule? Cc1ccc(C2=NNC3(S2)C(=O)Nc2ccccc23)cc1 (stereo not shown)
// result 5.97

// query Requested field: pEC50. Item: O=C1Nc2ccc(F)cc2C12NN=C(c1ccc(C(F)(F)F)nc1)S2 (stereo not shown)
// result 5.24

// query Consider the molecule shown here: COc1ccc2c(c1)C1(NN=C(c3cccc4cccnc34)S1)C(=O)N2 (stereo not shown) What is its recorded pEC50?
// result 5.58

// query For the molecule O=C1Nc2ccc(Cl)cc2C12NN=C(c1ccc(F)cc1)S2 (stereo not shown) , what pEC50 is on record?
// result 6.14

---

# Assayed system: GPR68/OGR1 (Homo sapiens, UniProt Q15743)
# Construct: host or cells: Chem-1 (CHEM1-OGR1) cells
# Sequence (Q15743 whole entry): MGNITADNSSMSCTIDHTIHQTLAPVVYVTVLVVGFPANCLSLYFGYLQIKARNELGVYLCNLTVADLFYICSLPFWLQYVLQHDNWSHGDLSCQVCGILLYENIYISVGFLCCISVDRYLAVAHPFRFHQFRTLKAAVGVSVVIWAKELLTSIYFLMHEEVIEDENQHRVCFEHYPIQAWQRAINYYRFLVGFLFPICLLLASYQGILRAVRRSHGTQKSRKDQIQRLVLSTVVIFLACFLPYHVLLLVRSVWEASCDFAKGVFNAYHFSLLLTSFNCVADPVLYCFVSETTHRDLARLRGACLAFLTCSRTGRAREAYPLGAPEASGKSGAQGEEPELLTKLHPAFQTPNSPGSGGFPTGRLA
# Assay explanation: CHEM1-OGR1 cells Fluo-8 calcium assay, acidified media pH 6.4
# Type: cell-based
# Run conditions: Table 5; read-out: GPR68
Entries annotated with measured pEC50
Note: pEC50 values are expressed as the negative base-10 logarithm of concentration in M.

Record excerpt, results attached:
>>> obs_value("Cc1ccc2c(c1)C1(NN=C(c3ccccc3)S1)C(=O)N2 (centres unmarked)")
6.12
>>> obs_value("CN1C(=O)C2(NN=C(c3cccc4ccccc34)S2)c2ccccc21 (centres unmarked)")
5.82
>>> obs_value("CCc1ccc2c(c1)C1(NN=C(c3ccccc3)S1)C(=O)N2 (centres unmarked)")
6.15

// query Please report the recorded pEC50 for CCc1ccc2c(c1)C1(NN=C(c3ccccc3O)S1)C(=O)N2 (centres unmarked) .
// result 5.47

// query Query (compound): CCc1ccc2c(c1)C1(NN=C(c3cccc4ccccc34)S1)C(=O)N2 (centres unmarked) ; field requested: pEC50
// result 6.80
